Give T/C for every item shown.
Tested on: L1210 leukemia ip in BDF1 mice, survival T/C
Test: NCI In Vivo Anticancer Drug Screen. Data for tumor model L1210 Leukemia (intraperitoneal) in B6D2F1 (BDF1) mice
Settings: endpoint: mean survival time; dose: 12.5 mg/kg/injection; schedule: Q04DX003 (ip); vehicle: Klucel (hydroxypropylcellulose) (HPC); higher = longer survival
Toxic doses and inconclusive results are not listed.

Request - read-out T/C | tested on L1210 leukemia ip in BDF1 mice, survival T/C | compound C=CCC[P+](c1ccccc1)(c1ccccc1)c1ccccc1
97 % of control

Notebook entry, L1210 leukemia ip in BDF1 mice, survival T/C assay: T/C of O=S(=O)(Oc1cccc(C(F)(F)F)c1)c1cccc(C(F)(F)F)c1 = ?
109 % of control

T/C of CC([NH-])C[NH-].[Cl][Pd][Cl] (configuration not stated) on L1210 leukemia ip in BDF1 mice, survival T/C?
96 % of control

Record Cc1cc(C)c(N)c(C)n1 : what is its T/C with L1210 leukemia ip in BDF1 mice, survival T/C?
95 % of control

Hi! What's the reported T/C for COc1cccc(OC#N)c1OC on L1210 leukemia ip in BDF1 mice, survival T/C?
96 % of control

What is its T/C for L1210 leukemia ip in BDF1 mice, survival T/C? Entry: CCC[CH2][Hg][Cl]
92 % of control

Request: T/C, test system L1210 leukemia ip in BDF1 mice, survival T/C, entry COc1cc(N(CCO)CCO)ccc1NC(=O)c1ccccc1
97 % of control

src = PubChem BioAssay AID248
